// provenance: PubChem BioAssay AID2060883

Tested on: 843782-103-R-J1-PDC complex spheroid viability
method_description: Anticancer human tumor 843782-103-R-J1-PDC patient-derived lung adenocarcinoma cell line growth inhibition [RAS]
condition_set: second compound 0.3 µM; first compound 0.00316 µM; stronger effect = lower value
viability, T/C values for the compounds below.

Q: In one line, give reported viability, T/C of the entry Nc1ccn(C2OC(CO)C(O)C2(F)F)c(=O)n1 (configuration not stated) + CCn1c(-c2cccnc2C(C)OC)c2c3cc(ccc31)N1CCOC(CC(NC(=O)C(C(C)C)N(C)C(=O)C3(F)CCN(C(=O)C#CC(C)(C)N(C)C)CC3)C(=O)N3CCCC(N3)C(=O)OCC(C)(C)C2)C1 .
Ans: 70.4%

Q: In one line, give reported viability, T/C of the entry CC(C)n1nc(-c2ccc3oc(N)nc3c2)c2c(N)ncnc21 + CCn1c(-c2cccnc2C(C)OC)c2c3cc(ccc31)N1CCOC(CC(NC(=O)C(C(C)C)N(C)C(=O)C3(F)CCN(C(=O)C#CC(C)(C)N(C)C)CC3)C(=O)N3CCCC(N3)C(=O)OCC(C)(C)C2)C1 .
Ans: 47.3%

---

Tested on: 843782-103-R-J1-PDC complex spheroid viability
method_description: Anticancer human tumor 843782-103-R-J1-PDC cell line growth inhibition [RAS];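 also: viability read after seven days of compound exposure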
condition_set: second compound 0.003 µM; first compound 0.1 µM; stronger effect = lower value
viability, T/C values for the compounds below.
Expressed in %, but write only the number.

Q: In one line, give reported viability, T/C of the entry CC(C)NCC(C(=O)N1CCN(c2ncnc3c2C(C)CC3O)CC1)c1ccc(Cl)cc1 (configuration not stated) + CCn1c(-c2cc(N3CCN(C)CC3)cnc2C(C)OC)c2c3cc(ccc31)-c1csc(n1)CC(NC(=O)C1CC1C)C(=O)N1CCCC(N1)C(=O)OCC(C)(C)C2 .
Ans: 63.7

Q: In one line, give reported viability, T/C of the entry C=CC(=O)N1CCN(c2nc(OCC3CCCN3C)nc3c(F)c(-c4nc(N)cc(C)c4C(F)(F)F)c(Cl)cc23)C(C)C1 (configuration not stated) + CCn1c(-c2cccnc2C(C)OC)c2c3cc(ccc31)N1CCOC(CC(NC(=O)C(C(C)C)N(C)C(=O)C3(F)CCN(C(=O)C#CC(C)(C)N(C)C)CC3)C(=O)N3CCCC(N3)C(=O)OCC(C)(C)C2)C1 .
Ans: 81.6

---

Test system: 843782-103-R-J1-PDC complex spheroid viability
method_description: Anticancer human tumor 843782-103-R-J1-PDC cell line growth inhibition [RAS];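 also: viability read after seven days of compound exposure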
condition_set: curve of first compound; second compound 3.16 µM
measured_endpoint: log10 of IC50 (log10 of the value in µM)
Answers are given as log10 of IC50 in µM.

{"columns": ["compound", "meas_value"],
 "data": [
  ["CCN1CCN(Cc2ccc(Nc3ncc(F)c(-c4cc(F)c5nc(C)n(C(C)C)c5c4)n3)nc2)CC1 + C#Cc1c(F)ccc2cc(O)cc(-c3ncc4c(N5CC6CCC(C5)N6)nc(OCC56CCCN5CC(F)C6)nc4c3F)c12", -0.38],
  ["CCc1c2c(nc3ccc(O)cc13)-c1cc3c(c(=O)n1C2)COC(=O)[C@]3(O)CC + C#Cc1c(F)ccc2cc(O)cc(-c3ncc4c(N5CC6CCC(C5)N6)nc(OCC56CCCN5CC(F)C6)nc4c3F)c12", -2.79],
  ["CC1(O)CCCC1n1c(=O)c(C(F)F)cc2cnc(NC3CCN(S(C)(=O)=O)CC3)nc21 (stereo unspecified) + C#Cc1c(F)ccc2cc(O)cc(-c3ncc4c(N5CC6CCC(C5)N6)nc(OCC56CCCN5CC(F)C6)nc4c3F)c12", -0.83],
  ["CCC(CC)c1cc(NC2CCC(N)C2)n2nccc2n1 (stereo unspecified) + C#Cc1c(F)ccc2cc(O)cc(-c3ncc4c(N5CC6CCC(C5)N6)nc(OCC56CCCN5CC(F)C6)nc4c3F)c12", 0.10],
  ["Cc1nc(N2CCC3(CC2)COC(C)C3N)c(CO)nc1Sc1ccnc(N)c1Cl (stereo unspecified) + C#Cc1c(F)ccc2cc(O)cc(-c3ncc4c(N5CC6CCC(C5)N6)nc(OCC56CCCN5CC(F)C6)nc4c3F)c12", -0.85],
  ["CC(Nc1ccc2c(c1)OCCn1cc(N3C(=O)OCC3C(F)F)nc1-2)C(N)=O (stereo unspecified) + C#Cc1c(F)ccc2cc(O)cc(-c3ncc4c(N5CC6CCC(C5)N6)nc(OCC56CCCN5CC(F)C6)nc4c3F)c12", -1.24]
]}

Then there is this compound:
Q: In one line, give reported log10 of IC50 of the entry CC1(C)CCC(Nc2ncc(C(F)(F)F)c(-c3c[nH]c4c(P(C)(C)=O)c(C#N)ccc34)n2)CN1 (stereo unspecified) + C#Cc1c(F)ccc2cc(O)cc(-c3ncc4c(N5CC6CCC(C5)N6)nc(OCC56CCCN5CC(F)C6)nc4c3F)c12 .
Ans: -2.25

---

Test system: 843782-103-R-J1-PDC complex spheroid viability
method_description: Anticancer human tumor 843782-103-R-J1-PDC cell line growth inhibition [RAS]; active means viability on the fitted dose curve at most 10% of control; inactive means the rest;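 also: viability read after seven days of compound exposure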
condition_set: second compound 0.00949 µM; first compound 1 µM
Your reply should match one of these outcome classes. Y = active, N = inactive

{"columns": ["molecule", "cat"],
 "data": [
  ["Nc1ccn(C2OC(CO)C(O)C2(F)F)c(=O)n1 (stereo not drawn) + CCn1c(-c2cc(N3CCN(C)CC3)cnc2C(C)OC)c2c3cc(ccc31)-c1csc(n1)CC(NC(=O)C1CC1C)C(=O)N1CCCC(N1)C(=O)OCC(C)(C)C2", "Y"]
]}

# evaluate next
Q: Please share the test call associated with C[C@@H](NC(=O)c1ncnc(N)c1Cl)c1ncc(C(=O)Nc2cc(C(F)(F)F)c(Cl)cn2)s1 + CCn1c(-c2cccnc2C(C)OC)c2c3cc(ccc31)N1CCOC(CC(NC(=O)C(C(C)C)N(C)C(=O)C3(F)CCN(C(=O)C#CC(C)(C)N(C)C)CC3)C(=O)N3CCCC(N3)C(=O)OCC(C)(C)C2)C1 .
Ans: N

---

Test system: 843782-103-R-J1-PDC complex spheroid viability
method_description: Anticancer human tumor 843782-103-R-J1-PDC cell line growth inhibition [RAS];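 also: viability read after seven days of compound exposure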
condition_set: second compound 10 µM; first compound 3.16 µM; stronger effect = lower value
Description: RAS pathway inhibitors in Combinations in Complex Spheroids A high-throughput screen of multi-cell type tumor spheroids was designed to identify active combinations of RAS pathway inhibitors and targeted small molecules. Complex spheroids include a stromal component modeled by human endothelial cells (HUVEC) and fibroblasts modeled by human mesenchymal stem cells (MSCs). […] Compounds. […] If the clinical Cmax for an agent had not been determined, the highest concentration tested was 10 microM. […]
viability, T/C values for the compounds below.
Expressed in %, but write only the number.

Sample records with viability, T/C:
{"columns": ["compound", "viability, T/C [%]"],
 "data": [
  ["Cc1nc(N2CCC3(CC2)COC(C)C3N)c(CO)nc1Sc1ccnc(N)c1Cl (stereo not drawn) + C#Cc1c(F)ccc2cc(O)cc(-c3ncc4c(N5CC6CCC(C5)N6)nc(OCC56CCCN5CC(F)C6)nc4c3F)c12", 21.6],
  ["CC(=O)OC12COC1CC(O)C1(C)C(=O)C(O)C3=C(C)C(OC(=O)C(O)C(NC(=O)OC(C)(C)C)c4ccccc4)CC(O)(C(OC(=O)c4ccccc4)C21)C3(C)C (stereo not drawn) + C#Cc1c(F)ccc2cc(O)cc(-c3ncc4c(N5CC6CCC(C5)N6)nc(OCC56CCCN5CC(F)C6)nc4c3F)c12", 3.89],
  ["CC(Nc1ccc2c(c1)OCCn1cc(N3C(=O)OCC3C(F)F)nc1-2)C(N)=O (stereo not drawn) + C#Cc1c(F)ccc2cc(O)cc(-c3ncc4c(N5CC6CCC(C5)N6)nc(OCC56CCCN5CC(F)C6)nc4c3F)c12", 8.8]
]}

Q: Consider the compound CCC(CC)c1cc(NC2CCC(N)C2)n2nccc2n1 (stereo not drawn) + C#Cc1c(F)ccc2cc(O)cc(-c3ncc4c(N5CC6CCC(C5)N6)nc(OCC56CCCN5CC(F)C6)nc4c3F)c12 tested on 843782-103-R-J1-PDC complex spheroid viability; state its viability, T/C.
Ans: 0.51

Q: Consider the compound C[C@@H](NC(=O)c1ncnc(N)c1Cl)c1ncc(C(=O)Nc2cc(C(F)(F)F)c(Cl)cn2)s1 + C#Cc1c(F)ccc2cc(O)cc(-c3ncc4c(N5CC6CCC(C5)N6)nc(OCC56CCCN5CC(F)C6)nc4c3F)c12 tested on 843782-103-R-J1-PDC complex spheroid viability; state its viability, T/C.
Ans: 54.9

Q: Consider the compound CC(C)NCC(C(=O)N1CCN(c2ncnc3c2C(C)CC3O)CC1)c1ccc(Cl)cc1 (stereo not drawn) + C#Cc1c(F)ccc2cc(O)cc(-c3ncc4c(N5CC6CCC(C5)N6)nc(OCC56CCCN5CC(F)C6)nc4c3F)c12 tested on 843782-103-R-J1-PDC complex spheroid viability; state its viability, T/C.
Ans: 10.1

Q: Consider the compound NC1c2ccccc2OC12CCN(c1cnc3c(N4CCCc5ncccc54)n[nH]c3n1)CC2 (stereo not drawn) + C#Cc1c(F)ccc2cc(O)cc(-c3ncc4c(N5CC6CCC(C5)N6)nc(OCC56CCCN5CC(F)C6)nc4c3F)c12 tested on 843782-103-R-J1-PDC complex spheroid viability; state its viability, T/C.
Ans: 17.5

Q: Consider the compound CC1(O)CCCC1n1c(=O)c(C(F)F)cc2cnc(NC3CCN(S(C)(=O)=O)CC3)nc21 (stereo not drawn) + C#Cc1c(F)ccc2cc(O)cc(-c3ncc4c(N5CC6CCC(C5)N6)nc(OCC56CCCN5CC(F)C6)nc4c3F)c12 tested on 843782-103-R-J1-PDC complex spheroid viability; state its viability, T/C.
Ans: 29
